readoutName: melting point

compound="CCC1C=NN(/C(N)=N/S(=O)(=O)c2c(Cl)nc3sccn23)C1 (single isomer, unassigned; (-)) [(−)-123]" observedmeasurement="176 to 178 °C"
compound="CCC1C=NN(/C(N)=N/S(=O)(=O)c2ccc(Cl)cc2)C1 (stereo not shown) [compound 30]" observedmeasurement="114 to 115 °C"
compound="CCN/C(=N\\S(=O)(=O)N(C)C)N1CC(CC)C=N1 (stereo not shown) [compound 171]" observedmeasurement="60 to 61 °C"
compound="CC1=NN(/C(N)=N/S(=O)(=O)c2cccc(Cl)c2)CC1c1ccccc1 (stereo not shown) [compound 141]" observedmeasurement="165 to 166 °C"
